TARGET_OF_ASSAY: human orexin 2 receptor (Homo sapiens (Human), UniProt O43614)
Sequence (O43614 whole entry): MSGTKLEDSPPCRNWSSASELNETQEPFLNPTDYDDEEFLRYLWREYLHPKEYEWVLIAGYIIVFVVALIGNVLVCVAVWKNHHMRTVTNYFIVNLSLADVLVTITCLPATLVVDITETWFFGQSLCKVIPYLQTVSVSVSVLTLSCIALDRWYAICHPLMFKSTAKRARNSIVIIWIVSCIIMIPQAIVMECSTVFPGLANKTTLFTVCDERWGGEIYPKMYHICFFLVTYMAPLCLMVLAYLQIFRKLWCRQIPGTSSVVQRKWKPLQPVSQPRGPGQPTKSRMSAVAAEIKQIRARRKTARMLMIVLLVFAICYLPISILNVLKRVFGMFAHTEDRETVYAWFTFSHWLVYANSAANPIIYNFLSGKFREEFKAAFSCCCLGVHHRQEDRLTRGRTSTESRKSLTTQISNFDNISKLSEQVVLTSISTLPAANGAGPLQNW
ASSAY_EXPLANATION: Human orexin 2 receptor radioligand binding
CONDITION_DESCRIPTION: human orexin 2 receptor; averages of 2-20 runs; read-out: hOX2 Ki
Please go through the items and note down their pKi.
The scale used: pKi is minus the common logarithm of the concentration in molar units.

According to the records, this compound Cc1ccc(-n2nccn2)c(C(=O)N2C[C@H]3C[C@@H](Nc4ncc(C(F)(F)F)cn4)[C@@H]2C3)n1 [Example 62] displays pKi of 6.24

Form: compound = O=C(c1cccc(F)c1-c1ncccn1)N1C[C@H]2C[C@@H](Oc3ccc(Cl)cn3)[C@@H]1C2 [Example 115] ; pKi = 6.07

Looking up O=C(c1ccc(F)cc1-c1ncccn1)N1C[C@H]2C[C@@H](Nc3ncc(Cl)cn3)[C@@H]1C2 [Example 237] , I see its pKi listed as 5.72

The reported pKi of the compound Cc1ccc(-n2nccn2)c(C(=O)N2C[C@H]3C[C@@H](Oc4ccc(Cl)cn4)[C@@H]2C3)n1 [Example 114] was 6.18

Per the records, this compound ( Cc1ccc(-c2ncccn2)c(C(=O)N2C[C@H]3C[C@@H](Oc4ccc(C(F)(F)F)nn4)[C@@H]2C3)n1 [Example 142] ) has pKi equal to 5.10

The compound listed as CN(c1ccc(C(F)(F)F)cn1)[C@@H]1C[C@H]2C[C@@H]1N(C(=O)c1cc(F)ccc1-c1ncccn1)C2 [Example 158] has a reported pKi of 6.47

Input Cc1noc(-c2cc(F)ccc2C(=O)N2C[C@H]3C[C@@H](Nc4ccc(C(F)(F)F)cn4)[C@@H]2C3)n1 [Example 152] . Output pKi: 5.80
